assay: yeast display, Sf9 membrane polyspecificity reagent, FACS + sequencing; frameworks hold sequencing errors
Readout Name: polyreactivity (PSR sort gate)

Before answering, review these 6 worked examples.
Query: polyreactivity (PSR sort gate); subject: QVQLEESGGRLVQEGGSLRLSCAASGYIFQGNAMGWYTPAPGKERELVAAITSSGGRTYYADSVKGRFTISRDNAKNTVYLQMHSLKPEDTAVYYCAAKSVRRGGGEYWGEGTQVTVSS
high polyreactivity

Now the sequence QVQLVESGGGLVQAGGSLRLSCAASGITFLSNAMGWYRQAPGKERELVAAISRGGGTTYYADSVKGRFTISRDNAKNTVYLQMNSLKPEDTAVYYCATESTHTRRSWYEYWGQGTQVTVSS
high polyreactivity

Now the sequence QVQLVESGGGLVQAGGSLRLSCAASGLTYKYYAMGWYRQAPGKERELVARISRGGNTNYADSVKGRFTISRDNAKNTVYLQMNSVKPEDTAVFYCAATVRVYDYWGQGTQVSVSS
high polyreactivity

Now the sequence QVQLVESGGGLVQAGRSLRLSCAASGRTFGANAMGWYRQAPGKERELVAAISYHGTRTYYADSVKGRFTISRDNAKNTVYLQMNSLKPEDTAVYYCAAVGKPGVYQEGDYWGQGTQVTVSS
high polyreactivity

Now the sequence QVQLVESGGGLVQAGGSLRLSCAASGSIFGGNAMGWYRQAPGKERELVAAITYSGGSTYYADSVKGRFTISRDNAKNTVYLQMNSLKPEDTAVYYCAASASVRGGGADQYVIAFDYWGQGTQVTVSS
low polyreactivity

Now the sequence QVQLVESGGGLVQAGGSLRLICAASGRIFSKNAMGWYRQAPGKEREFVAAISRIGGRTYYADSVKGRFTISRDNAKNTVYFQMNSLKPEDTAVYYCATVHYGYTTSYDYWGQGTQVTVSS
high polyreactivity

Continuing:
Query: polyreactivity (PSR sort gate); subject: QVQLQESGGRLVQASGSIFHEPNMGWHRQAPGKERELVATISDGAITNYADSVKGRFTISRDNAKNTVYLQMNSLIPEDTAVYYCAATGGLNGALSRLEYWGQGTQVSVSS
high polyreactivity

====

assay: yeast display, Sf9 membrane polyspecificity reagent, FACS + sequencing; frameworks hold sequencing errors
Readout Name: polyreactivity (PSR sort gate)

Query: polyreactivity (PSR sort gate); subject: QVQLVESVGGLVQAGGSLRLSCAASGYILPKNTMGWYIQAPGKERELVAAISWSGGSTFYADSVKGRFTISRDNAKNTVYLQMNRLKPEDTAVYYCAADRSWSWYYRYDYWGQGTQVTVSS
low polyreactivity

Now the sequence QVQLVESGGGLVQAGGSLRLSCAASGRTFGNYAMGWYRQAPGKERELVAAISSGRSTNYADSVKRRFTISRDNGKNTVYLQMNSLKPEDTAVYYCNADWGFPDVKETGVRFDYWGQGTQVTVSW
low polyreactivity

Now the sequence QVQLVESGGGLDQAGGSLRLSCAASGSTFGYYAMAWYRQSPGKERELVAAITSGASTNYADSVKGRFTISRDNAKNTVYLQMNSLKPEDTAVYYCAAGFQTRTPLNEFDYWGQGTQVTLSS
low polyreactivity

Now the sequence QVQRVESGGGLVQAGGSLRLSCAASGSTFTRYGMGWYRQAPGKERELVAAISDRGVSTYYADSVKGRFTISRDNAKNTVYLQMNRMKPEDTAVYYCAAVFWVDILPGDYWGQGTQVTVSS
low polyreactivity

====

test: yeast display, Sf9 membrane polyspecificity reagent, FACS + sequencing; frameworks hold sequencing errors
Readout Name: polyreactivity (PSR sort gate)

Query: polyreactivity (PSR sort gate); subject: QVQLVESGGVLVQAGGSLRLSCAASGSIFGYNVMGRYRQAPGKERELVAAITYSGGSTYYADSVKGRFTISRDNAKNTVYLQMNSLKPEDTAVYYCAKVTGRRFPAYGYDHWGQGTQLTVSS
high polyreactivity

Now the sequence QVQLVESGGGLVQAGGSLRLSCAASGFTIHRYAMGWYRQAPGKERELVAAIRWSGGRTYYADSVKGRFTISRDNAKNTVYLQMNSLKPEDTAVYYCAARTNSPRGYGSDYWGKGTQVTVSS
high polyreactivity

Now the sequence QVQLVESGGGLVQAGCSLRLSCDASGSIFPGNAMGWYRQAPGKEREFVAAISWSGGSTNYADSVKGRFTISRDNAKNTVYLQMNSLKPEDTAVYFCAKRFVRRDPTTQLYGKAYEYWGQGTQVTVSS
high polyreactivity

====

experiment: yeast display, Sf9 membrane polyspecificity reagent, FACS + sequencing; frameworks hold sequencing errors
Readout Name: polyreactivity (PSR sort gate)

Query: polyreactivity (PSR sort gate); subject: QVQLVESGGGLVQAGGSLRLSCAASGGIFYPYAMGWYRQAPGKERELVASIDVSDGSTYYADSVKGRFTISRDNAKNTVYLQMNSLKPEDTAVYYCAADRYSKAIDFEGDYWGQGTQVTVSS
low polyreactivity

Now the sequence QVQLVESGGGLVQAGGSLRLSCSASGFIFRYNAMGWYRQAPGKEREFVAAISQGGASTYYADSVKGRFTISRDNAKNTVYLQMNSLKPEDTAVYYCNAVVDTSKYTDYYWGQGTQVTVSS
low polyreactivity

Now the sequence QVQLVESGGVLVQEGGSLRLSCDASGSIFECYAMGWYRQAPGKARELVAYITYNGGSTYYADSVKGRFTISRHNAKKTVYLQMNSLKPEDSAVYYCAAVYFVQVPDYYYASEYGYWGQGTQVTVSS
low polyreactivity

Now the sequence QVQLVESGGGLVQAGGSLSLSCAASGRTFGSYAMGWYRQAPGKERELVAAITGSGGSTYYADSVKGRFTISRDNAKNNVYLQMNSLKPEDTAVYYCRYLFGYIAMDYWGQGTQVTVSS
low polyreactivity

====

test: yeast display, Sf9 membrane polyspecificity reagent, FACS + sequencing; frameworks hold sequencing errors
Readout Name: polyreactivity (PSR sort gate)

Query: polyreactivity (PSR sort gate); subject: QVQLVESGGGLVQAGGSLRLSCAASGRTFGSNAMGWYRQAPGKERELVAAIRWGGGSTYYADSVKGRFTISRDNAKNTVYLQMNSLKPEDTAVYYCAAAYNWRKYDYWGQGTQVTVSS
high polyreactivity

Now the sequence QVQLVESGGGLVQAGGSLRLSCAASGRIFYEYAMGWYRQAPGKERELVAAITRGDSTYYADSVKGRFTISRDNAKNTVYLQMNSLKPEDTAVYFCNAGVFDYSGDSNYWGQGTQVTVSS
low polyreactivity

Now the sequence QVQLVESGGGLVQAGGSLRLSCAASGRTFLLYAMGWYRPAPGKERELVAAIRSSTVSTYYADSVKGRFTISRDNAKNTVYLQMNSLKPEDTAVYYCAASRPKYGPSGVRYNYWGQGTQVTVSS
high polyreactivity

Now the sequence QVQLVESGGGLVQAGGSLRLTCAASGFIFRAYAKGWYRQEPGKERELVAAISRSVSRTYYADSVKGRFTISRDNAKNTVYLQMNSLKPEDTAVYYCAADGQLHMDYWGQGTQVTVSS
high polyreactivity

Note: attention shifts to another entry.
Query: polyreactivity (PSR sort gate); subject: QVQLVESGGGLVQAGGSLRLSCAASGSTFTVNGMGWYRQAPGKERELVASITWSGGSTYYADSVKGRFTISRDNAKNTVYLQMNSLNPEDTAVYYCAADEKLYITGYDYWVQGTQVTVSS
low polyreactivity

====

test: yeast display, Sf9 membrane polyspecificity reagent, FACS + sequencing; frameworks hold sequencing errors
Readout Name: polyreactivity (PSR sort gate)

Query: polyreactivity (PSR sort gate); subject: QVQLVESGGGLVQAGGSLRLSCASSGFTFDINAMGWYRQAPGKERELVAVITWNDGSTYYADSVKGRFTISRDNAKNTVYLQMNSLKPEDTAVYYCAAEYADSWSAFDWNYYYWGQGTQVTVSS
high polyreactivity

Now the sequence QVQLVESGGGLVQAGGSLRLSCAASGRIFYKYAMGWYRQAPGKERELVAAISSGGNTNYADSVKGRFTISRDNAKNTVYLQMNSLKPEDTAVYYCNAKRAYYRGYYPDNYWGQGTQVTVSS
high polyreactivity

Now the sequence QVQLEESGGGIVQAGGSLRLSCAASGSTFVLNAMGWYRKAPGKERELVAAITRDGRTYYADSVKGRFTISRDNAKNTVYLQMNSLKPEDTAVYYCARPARYSYGDGYWGQGTLVTVSS
low polyreactivity

Now the sequence QVQLVESGGGLVQAGGSLRLSCAASGITFRYFAMGWYRQAPGKERELVAAITRSGSTTYADSVKGRFTISRDNAKNTVYLQMNSLKPEDTAVYYCAVDYYYLTGGVDYWGQGTQVTVSS
low polyreactivity

Note: attention shifts to another entry.
Query: polyreactivity (PSR sort gate); subject: QVQLVESGGGLVQAGGSLRLSCAASGTIYDGYAMGWYRQAPGKERELVAAINTSGGTTYYADSENGRFTISRDKAKNNGYLQMNSLKPEETAVYYCNAHNHLPPYDYWGQGSQVTVSS
low polyreactivity

====

test: yeast display, Sf9 membrane polyspecificity reagent, FACS + sequencing; frameworks hold sequencing errors
Readout Name: polyreactivity (PSR sort gate)

Before answering, review these 5 worked examples.
Query: polyreactivity (PSR sort gate); subject: QVQLVESGGGLVQAGGSLRLSCAASGFTFYRYAMGWYRQAPGKERELVAAISSSGGTTYYADSVKGRFTISRDNAKNTVYLQMNSLKPEDTAVYYCAARGWPTWGWGYDYWGQGTQVTVSS
high polyreactivity

Now the sequence QVQLVESGGGLVQAGGSLRLSCAASGRTIGYYAMGWYRQAPGKERELVAAITWSGGNTYYADSVKGRFTISRDNAKNTVYLQMNSLKPEDTAVYYCNALYLWGMDYWGQGTQVTVSS
low polyreactivity

Now the sequence QVQLVESGGGLVQAGGSLRLSCAASGSTLPGNVMGWYRQAPGKERELVAAISWTGGSTYYADSVKGRFTISRDNAKNTVYLQMNSLKPEDTAVYYCAVDAYESPWWSDPYEYWGQGTQVTVSS
low polyreactivity

Now the sequence QVQLVESGGGLVQAGGSLRLSCAASGRIFTRYVMGWYRPAPGKERELVAGINSGGRTNYADSVKGRFTISRDNAKNTVYLQMNSLKQVDTAVYYCAAGKGRPVGGRAYYYWGHGTQVTVSS
high polyreactivity

Now the sequence QVQLVESGGGLVQAGGSLRLSCAAYGRTFARYAMGWYRQAPGKERELVAAISKSGVSTYYADSVKGRFTISRDHAKNTLYLQMNSLKPEDTAVYYCAAYVRQLQVVRGVSNYDSWGQGTQVTVSS
high polyreactivity

Note: attention shifts to another entry.
Query: polyreactivity (PSR sort gate); subject: QVQLVESGGGLVQAGGSLRLSCAASGFIFTVYALGWYRQAPVKERELVATITGTGDTNYADSVKGRFTISRDNAKNTVYLQMNSLKPEDTAVYYCAVSPRVPFRKPVLTPYNMYYWGQGTQVTVSS
high polyreactivity
